Tested on: Klebsiella pneumoniae
ASSAY_REMARKS: Antimicrobial activity against Klebsiella pneumoniae at 128 ug/ml after 24 hrs by agar diffusion technique
Assay type: functional
EXPERIMENTAL_PARAMETERS: read-out: DIZ
PROPERTY: zone of inhibition at 128 µg/mL (mm)
// return numeric value only (unit: mm, not printed)

Here is how some compounds turned out for zone of inhibition at 128 µg/mL.
CCn1cc(C(=O)O)c(=O)c2cc(F)c(N3CCN(CN4CCOCC4)CC3)cc21 = 0
CCn1cc(C(=O)O)c(=O)c2cc(F)c(N3CC[N+](CCO)(CCO)CC3)cc21.[Br-] = 5
CCn1cc(C(=O)O)c(=O)c2cc(F)c(N3CCN(CN4N=C(C)CC4=O)CC3)cc21 = 6

QUERY: For Klebsiella pneumoniae, provide zone of inhibition at 128 µg/mL of "CCn1cc(C(=O)O)c(=O)c2cc(F)c(N3CCN(CN4C(=O)c5ccccc5C4=O)CC3)cc21" please.
RESULT: 8

QUERY: For Klebsiella pneumoniae, provide zone of inhibition at 128 µg/mL of CCn1cc(C(=O)O)c(=O)c2cc(F)c(N3CCNCC3)cc21 [NORFLOXACIN] please.
RESULT: 8

* * *

Here, each record is paired with measured zone of inhibition at 4 µg/mL data.
Test system: Escherichia coli
ASSAY_REMARKS: Antimicrobial activity against Escherichia coli at 4 ug/ml after 24 hrs by agar diffusion technique
Format: functional
EXPERIMENTAL_PARAMETERS: read-out: DIZ
// return numeric value only (unit: mm, not printed)

CCn1cc(C(=O)O)c(=O)c2cc(F)c(N3CCN(CN4CCOCC4)CC3)cc21 = 0
CCn1cc(C(=O)O)c(=O)c2cc(F)c(N3CCN(CN4C(=O)c5ccccc5C4=O)CC3)cc21 = 0
CCn1cc(C(=O)O)c(=O)c2cc(F)c(N3CCN(CN4N=C(C)CC4=O)CC3)cc21 = 8
CCn1cc(C(=O)O)c(=O)c2cc(F)c(N3CCN(c4nnc(-c5ccccc5)c(-c5ccccc5)n4)CC3)cc21 = 0
CCn1cc(C(=O)O)c(=O)c2cc(F)c(N3CCN(C4CCCC4)CC3)cc21 = 0
CCn1cc(C(=O)O)c(=O)c2cc(F)c(N3CCNCC3)cc21 [NORFLOXACIN] = 0
CCn1cc(C(=O)O)c(=O)c2cc(F)c(N3CCN(CN4C(=O)c5cccc6cccc(c56)C4=O)CC3)cc21 = 0
CCn1cc(C(=O)O)c(=O)c2cc(F)c(N3CCN(CN4C(=O)CCC4=O)CC3)cc21 = 0
CCn1cc(C(=O)O)c(=O)c2cc(F)c(N3CCN(Cn4cnc5ccccc54)CC3)cc21 = 0
CCn1cc(C(=O)O)c(=O)c2cc(F)c(N3CCN(C=O)CC3)cc21 [4-N-FORMYL-1-PIPERAZINYL-NORFLOXACIN] = 2

Now examine the next entry.
QUERY: Quick check: zone of inhibition at 4 µg/mL of "CCn1cc(C(=O)O)c(=O)c2cc(F)c(N3CC[N+](CCO)(CCO)CC3)cc21.[Br-]" ?
RESULT: 0

* * *

ASSAY_REMARKS: Octanol-phosphate buffer partition coefficient, log D at pH 7.4 by spectrophotometry
Assay type: physicochemical
Use -0.04 as the dividing line for logD, with the line itself on the Satisfied side and lower values as Not satisfied.

Here's what some known entries look like.
CCn1cc(C(=O)O)c(=O)c2cc(F)c(N3CC[N+](CCO)(CCO)CC3)cc21.[Br-] = Satisfied
CCn1cc(C(=O)O)c(=O)c2cc(F)c(N3CCN(CN4C(=O)CCC4=O)CC3)cc21 = Not satisfied
CCn1cc(C(=O)O)c(=O)c2cc(F)c(N3CCN(Cn4cnc5ccccc54)CC3)cc21 = Not satisfied

QUERY: Say whether "CCn1cc(C(=O)O)c(=O)c2cc(F)c(N3CCN(CN4CCOCC4)CC3)cc21" shows logD of -0.04 or more.
RESULT: Not satisfied

QUERY: Say whether "CCn1cc(C(=O)O)c(=O)c2cc(F)c(N3CCNCC3)cc21" shows logD of -0.04 or more.
RESULT: Not satisfied

QUERY: Say whether "CCn1cc(C(=O)O)c(=O)c2cc(F)c(N3CCN(c4nnc(-c5ccccc5)c(-c5ccccc5)n4)CC3)cc21" shows logD of -0.04 or more.
RESULT: Not satisfied

QUERY: Say whether "CCn1cc(C(=O)O)c(=O)c2cc(F)c(N3CCN(CN4N=C(C)CC4=O)CC3)cc21" shows logD of -0.04 or more.
RESULT: Not satisfied

QUERY: Say whether "CCn1cc(C(=O)O)c(=O)c2cc(F)c(N3CCN(CN4C(=O)c5cccc6cccc(c56)C4=O)CC3)cc21" shows logD of -0.04 or more.
RESULT: Not satisfied

QUERY: Say whether "CCn1cc(C(=O)O)c(=O)c2cc(F)c(N3CCN(C=O)CC3)cc21" shows logD of -0.04 or more.
RESULT: Satisfied

* * *

Tested on: Escherichia coli
ASSAY_REMARKS: Antimicrobial activity against Escherichia coli at 16 ug/ml after 24 hrs by agar diffusion technique
Type: functional
EXPERIMENTAL_PARAMETERS: read-out: DIZ
PROPERTY: zone of inhibition at 16 µg/mL (mm)
// return numeric value only (unit: mm, not printed)

CCn1cc(C(=O)O)c(=O)c2cc(F)c(N3CCN(CN4N=C(C)CC4=O)CC3)cc21 = 8
CCn1cc(C(=O)O)c(=O)c2cc(F)c(N3CCNCC3)cc21 = 0
CCn1cc(C(=O)O)c(=O)c2cc(F)c(N3CCN(CN4C(=O)c5ccccc5C4=O)CC3)cc21 = 0
CCn1cc(C(=O)O)c(=O)c2cc(F)c(N3CCN(CN4CCOCC4)CC3)cc21 = 0

QUERY: Quick check: zone of inhibition at 16 µg/mL of "CCn1cc(C(=O)O)c(=O)c2cc(F)c(N3CCN(c4nnc(-c5ccccc5)c(-c5ccccc5)n4)CC3)cc21" ?
RESULT: 0

* * *

Test system: Staphylococcus aureus
ASSAY_REMARKS: Antimicrobial activity against Staphylococcus aureus at 128 ug/ml after 24 hrs by agar diffusion technique
Assay type: functional
EXPERIMENTAL_PARAMETERS: read-out: DIZ
Here, each record is paired with measured zone of inhibition at 128 µg/mL data.
// return numeric value only (unit: mm, not printed)

CCn1cc(C(=O)O)c(=O)c2cc(F)c(N3CCN(C4CCCC4)CC3)cc21 = 7
CCn1cc(C(=O)O)c(=O)c2cc(F)c(N3CCN(CN4N=C(C)CC4=O)CC3)cc21 = 3
CCn1cc(C(=O)O)c(=O)c2cc(F)c(N3CCN(CN4C(=O)c5cccc6cccc(c56)C4=O)CC3)cc21 = 0
CCn1cc(C(=O)O)c(=O)c2cc(F)c(N3CCN(CN4C(=O)CCC4=O)CC3)cc21 = 13

QUERY: For Staphylococcus aureus, provide zone of inhibition at 128 µg/mL of "CCn1cc(C(=O)O)c(=O)c2cc(F)c(N3CCN(CN4C(=O)c5ccccc5C4=O)CC3)cc21" please.
RESULT: 0

QUERY: For Staphylococcus aureus, provide zone of inhibition at 128 µg/mL of "CCn1cc(C(=O)O)c(=O)c2cc(F)c(N3CC[N+](CCO)(CCO)CC3)cc21.[Br-]" please.
RESULT: 0

QUERY: For Staphylococcus aureus, provide zone of inhibition at 128 µg/mL of "CCn1cc(C(=O)O)c(=O)c2cc(F)c(N3CCN(C=O)CC3)cc21" please.
RESULT: 15

* * *

Test system: Escherichia coli
ASSAY_REMARKS: Antimicrobial activity against Escherichia coli at 512 ug/ml after 24 hrs by agar diffusion technique
Format: functional
EXPERIMENTAL_PARAMETERS: read-out: DIZ
Here, each record is paired with measured zone of inhibition at 512 µg/mL data.
// return numeric value only (unit: mm, not printed)

Here is how some compounds turned out for zone of inhibition at 512 µg/mL.
CCn1cc(C(=O)O)c(=O)c2cc(F)c(N3CCN(CN4N=C(C)CC4=O)CC3)cc21 = 10
CCn1cc(C(=O)O)c(=O)c2cc(F)c(N3CCN(Cn4cnc5ccccc54)CC3)cc21 = 10

QUERY: Quick check: zone of inhibition at 512 µg/mL of "CCn1cc(C(=O)O)c(=O)c2cc(F)c(N3CCN(CN4C(=O)CCC4=O)CC3)cc21" ?
RESULT: 5

* * *

Here, each record is paired with measured zone of inhibition at 128 µg/mL data.
Test system: Klebsiella pneumoniae
ASSAY_REMARKS: Antimicrobial activity against Klebsiella pneumoniae at 128 ug/ml after 24 hrs by agar diffusion technique
Format: functional
EXPERIMENTAL_PARAMETERS: read-out: DIZ
// return numeric value only (unit: mm, not printed)

CCn1cc(C(=O)O)c(=O)c2cc(F)c(N3CCN(CN4C(=O)CCC4=O)CC3)cc21 = 22
CCn1cc(C(=O)O)c(=O)c2cc(F)c(N3CCN(C=O)CC3)cc21 = 0
CCn1cc(C(=O)O)c(=O)c2cc(F)c(N3CCN(CN4C(=O)c5cccc6cccc(c56)C4=O)CC3)cc21 = 8

QUERY: Quick check: zone of inhibition at 128 µg/mL of "CCn1cc(C(=O)O)c(=O)c2cc(F)c(N3CCN(C4CCCC4)CC3)cc21" ?
RESULT: 3

QUERY: Quick check: zone of inhibition at 128 µg/mL of "CCn1cc(C(=O)O)c(=O)c2cc(F)c(N3CCN(c4nnc(-c5ccccc5)c(-c5ccccc5)n4)CC3)cc21" ?
RESULT: 0

QUERY: Quick check: zone of inhibition at 128 µg/mL of "CCn1cc(C(=O)O)c(=O)c2cc(F)c(N3CCN(Cn4cnc5ccccc54)CC3)cc21" ?
RESULT: 8

All figures here come from ChEMBL document CHEMBL1137764.
